Every entry's value here was drawn from patent US10221163B2.

Field: Efflux ratio. Provide a value for each of the compounds that follow.
System: Pseudomonas aeruginosa MB9798 vs MB9799
Details: ratio MITC95 PA_9798/MITC95 PA_9799

Prompt: Dear colleague, I am looking for the recorded Efflux ratio of the following compound: Nc1nc2c(-c3ccc(S(=O)(=O)NC4CCc5nccn5C4)c(S(N)(=O)=O)c3-c3nnn[nH]3)cccc2s1 (centres unmarked)
Response: 2.00

Prompt: Suppose we examine the compound CN(C[C@@H]1CCCN1)S(=O)(=O)c1ccc(-c2cccc3sc(N)nc23)c(-c2nnn[nH]2)c1S(N)(=O)=O.O=CO ; what Efflux ratio value has been reported?
Response: 4.00

Prompt: What does the data say about its Efflux ratio? Entry: NS(=O)(=O)c1c(S(=O)(=O)N[C@@H]2CCNC2)ccc(-c2cccc(-c3nc[nH]n3)c2)c1-c1nn[nH]n1
Response: 1.00

Prompt: // returns reported Efflux ratio for input C[C@H](CN)NS(=O)(=O)c1ccc(-c2cccc3[nH]c(CN)nc23)c(-c2nn[nH]n2)c1S(N)(=O)=O
Response: 1.00

Prompt: Given the compound C[N+]1(CCN)CC[C@H](NS(=O)(=O)c2ccc(-c3cccc4[nH]c(N)nc34)c(-c3nn[nH]n3)c2S(N)(=O)=O)C1.O=C([O-])O (some centres unmarked) , what is its reported Efflux ratio?
Response: 1.00

Prompt: What measured Efflux ratio goes with NS(=O)(=O)c1c(S(=O)(=O)N[C@@H]2CCNC2)ccc(-c2cccc3[nH]nnc23)c1-c1nn[nH]n1 ?
Response: 0.50

Prompt: Could you tell me which Efflux ratio is on file for C[C@H](N)c1nc2c(-c3ccc(S(=O)(=O)N[C@@H]4CCNC4)c(S(N)(=O)=O)c3-c3nn[nH]n3)cccc2[nH]1 ?
Response: 2.00

Prompt: I'd like to know its Efflux ratio. The compound in question is NCCNC(=O)c1cccc(-c2ccc(S(=O)(=O)NCCN)c(S(N)(=O)=O)c2-c2nn[nH]n2)c1
Response: 2.00

Prompt: Name the reported Efflux ratio value associated with the compound Nc1cccc(-c2ccc(S(=O)(=O)N[C@@H]3CCNC3)c(S(N)(=O)=O)c2-c2nn[nH]n2)n1
Response: 1.00

Prompt: Fill in the blank: the reported Efflux ratio of Nc1nc2c(-c3ccc(S(=O)(=O)N[C@@H]4CN[C@@H](CO)C4)c(S(N)(=O)=O)c3-c3nnn[nH]3)cccc2[nH]1 is ____.
Response: 1.00

Prompt: Recorded Efflux ratio for NCC(CN)NS(=O)(=O)c1ccc(-c2cccc(C3N=NC(N)=N3)c2)c(-c2nn[nH]n2)c1S(N)(=O)=O (centres unmarked) , please?
Response: 0.50

Prompt: Tell me the measured Efflux ratio of NC[C@@H](CO)NS(=O)(=O)c1ccc(-c2cccc3sc(N)nc23)c(-c2nnn[nH]2)c1S(N)(=O)=O , please.
Response: 0.50

Prompt: Requested read-out: Efflux ratio. Entry: CNc1nc2c(-c3ccc(S(=O)(=O)N[C@@H]4CCNC4)c(S(N)(=O)=O)c3-c3nn[nH]n3)cccc2[nH]1
Response: 0.50

Prompt: Which measured Efflux ratio value corresponds to Nc1ccc2cccc(-c3ccc(S(N)(=O)=O)c(S(N)(=O)=O)c3-c3nn[nH]n3)c2n1 ?
Response: 1.00

Prompt: Item under review: C[C@@H](N)c1nc2c(-c3ccc(S(=O)(=O)N[C@@H]4CCNC4)c(S(N)(=O)=O)c3-c3nn[nH]n3)cccc2[nH]1 . Reported Efflux ratio?
Response: 1.00

Prompt: Efflux ratio lookup needed for CC1(NS(=O)(=O)c2ccc(-c3cccc4sc(N)nc34)c(-c3nnn[nH]3)c2S(N)(=O)=O)CCCNC1 (centres unmarked) , thanks.
Response: 1.00

Prompt: Can you look up the measured Efflux ratio of NC[C@@H](CO)NS(=O)(=O)c1ccc(-c2ccnc(N)c2)c(-c2nn[nH]n2)c1S(N)(=O)=O for me?
Response: 1.00

Prompt: I am curious: what Efflux ratio value has been reported for NS(=O)(=O)c1c(S(=O)(=O)N[C@@H]2CCNC2)ccc(-c2cnc3cc[nH]c3c2)c1-c1nn[nH]n1 ?
Response: 1.00

Prompt: Record request: Efflux ratio value, item Nc1nc2c(-c3ccc(S(=O)(=O)N[C@@H]4CNC[C@H]4O)c(S(N)(=O)=O)c3-c3nnn[nH]3)cccc2[nH]1
Response: 0.50

Prompt: I am curious: what Efflux ratio value has been reported for Cn1c(N)nc2c(-c3ccc(S(=O)(=O)NC[C@@H](O)CN)c(S(N)(=O)=O)c3-c3nn[nH]n3)cccc21 ?
Response: 1.00
